# assayTarget: hTRPV3 (Homo sapiens (Human), UniProt Q8NET8)
# Sequence (Q8NET8 whole entry): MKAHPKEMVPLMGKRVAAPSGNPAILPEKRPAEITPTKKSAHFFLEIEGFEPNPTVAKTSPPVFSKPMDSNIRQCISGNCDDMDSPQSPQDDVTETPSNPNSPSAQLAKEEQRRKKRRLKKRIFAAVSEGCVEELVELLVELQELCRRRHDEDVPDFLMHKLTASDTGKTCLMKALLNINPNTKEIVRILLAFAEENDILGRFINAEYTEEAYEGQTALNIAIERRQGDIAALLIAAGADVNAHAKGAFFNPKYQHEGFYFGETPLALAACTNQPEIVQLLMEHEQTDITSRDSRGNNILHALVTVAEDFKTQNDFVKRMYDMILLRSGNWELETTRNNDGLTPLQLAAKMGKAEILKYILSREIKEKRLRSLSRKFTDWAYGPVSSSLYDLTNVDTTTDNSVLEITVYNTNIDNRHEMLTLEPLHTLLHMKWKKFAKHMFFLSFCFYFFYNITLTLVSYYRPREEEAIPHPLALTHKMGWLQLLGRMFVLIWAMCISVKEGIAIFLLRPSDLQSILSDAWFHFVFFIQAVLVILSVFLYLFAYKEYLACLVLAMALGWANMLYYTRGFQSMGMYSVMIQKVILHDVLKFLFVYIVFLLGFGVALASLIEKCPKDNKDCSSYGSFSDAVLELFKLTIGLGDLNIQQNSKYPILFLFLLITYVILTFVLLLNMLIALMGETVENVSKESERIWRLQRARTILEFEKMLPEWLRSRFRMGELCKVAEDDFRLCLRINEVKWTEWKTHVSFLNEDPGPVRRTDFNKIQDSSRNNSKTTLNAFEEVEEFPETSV
# assayNotes: Whole-cell patch clamp, hTRPV3 Phase 1 / Phase 2 currents
# Format: cell-based
# testContext: Phase 1 current, inward, whole-cell patch clamp; read-out: hTRPV3 Patch P1 Inwd
recordedEndpoint: IC50

Some compounds with recorded IC50:
[
  {
    "compound": "CCc1ccccc1-c1ccc(C2CCN(C(=O)c3ccc(F)cn3)C2)c(CO)c1 (stereo not shown)",
    "IC50": "10 to 100 nM"
  },
  {
    "compound": "N#Cc1ccccc1-c1ccc(N2CC[C@H](Oc3ccc(C(F)(F)F)cn3)C2)c(CO)c1",
    "IC50": "100 to 1000 nM"
  },
  {
    "compound": "Cc1ccccc1Oc1ccc(N2CC[C@H](Oc3ccc(C(F)(F)F)cn3)C2)c(CO)n1",
    "IC50": "100 to 1000 nM"
  }
]

Here is another compound to look at.
I'd like to know its IC50. The compound in question is CCOC(=O)c1nc(-c2ccccc2)sc1N1CC[C@H](Oc2ccc(C(F)(F)F)cn2)C1
> 1000 nM

----------
# assayTarget: hTRPV3 (Homo sapiens (Human), UniProt Q8NET8)
# assayNotes: Whole-cell patch clamp, hTRPV3 Phase 1 / Phase 2 currents
# Assay type: cell-based
# testContext: Phase 2 current; read-out: hTRPV3 (nM) (Phase 2)
Structures can show the parent of a compound that is named as a salt.
recordedEndpoint: IC50

Some compounds with recorded IC50:
[
  {
    "compound": "NC(=O)c1c(-c2ccccc2)cccc1N1CC[C@H](Oc2ccc(C(F)(F)F)cn2)C1",
    "assayTarget": "hTRPV3 (Homo sapiens (Human), UniProt Q8NET8)",
    "IC50": "> 3200 nM"
  },
  {
    "compound": "O=C(c1ccc(Cl)cc1)c1ccc(N2CC[C@H](Oc3ncccc3Cl)C2)c(CCO)c1",
    "assayTarget": "hTRPV3 (Homo sapiens (Human), UniProt Q8NET8)",
    "IC50": "~217 nM"
  },
  {
    "compound": "NC(=O)c1cc(-c2ccccn2)ccc1N1CC[C@H](Nc2ccc(C(F)(F)F)cn2)C1",
    "assayTarget": "hTRPV3 (Homo sapiens (Human), UniProt Q8NET8)",
    "IC50": "> 3200 nM"
  },
  {
    "compound": "CCc1ccccc1Oc1ccc(N2CC[C@H](Oc3ncccc3C)C2)c(CO)c1",
    "assayTarget": "hTRPV3 (Homo sapiens (Human), UniProt Q8NET8)",
    "IC50": "~2.54 nM"
  },
  {
    "compound": "NC(=O)c1cc(-c2ccccc2)ccc1N1CC[C@H](Nc2ncccc2Cl)C1 [Compound 1-377]",
    "assayTarget": "hTRPV3 (Homo sapiens (Human), UniProt Q8NET8)",
    "IC50": "318 nM"
  }
]

I would be grateful if you could provide IC50 for each of the following entries.
1. NC(=O)c1cc(-c2ccccc2)ccc1N1CC[C@@H](Oc2ncccc2Cl)C1
2. NCc1cc(-c2ccccc2Cl)ccc1N1CC[C@H](Oc2ncccc2Cl)C1 [Compound 1-122, hydrochloride]
3. O=C1C(Oc2ccc3ccccc3n2)CCN1c1ccccc1Cl (stereo not drawn)
4. NC(=O)c1cc(-c2ccncc2)ccc1N1CC[C@@H](Oc2ncccc2Cl)C1 [Compound 1-82, hydrochloride]
5. CCc1ccccc1C(O)c1ccc(N2CC[C@H](Nc3ncccc3Cl)C2)c(CO)c1 (stereo partly drawn)
6. NCc1cc(-c2ccccc2Cl)ccc1N1CC[C@H](Oc2ccc(C(F)(F)F)cn2)C1

["342 nM", "< 3200 nM", "> 3200 nM", "1930 nM", "~2150 nM", "< 3200 nM"]

I would be grateful if you could provide IC50 for each of the following entries.
1. O=C1C(Oc2ccc3ccccc3n2)CCN1c1cccc2ccccc12 (stereo not drawn)
2. Cc1ccccc1Oc1ccc(N2CC[C@H](Oc3ncccc3Cl)C2)c(CO)c1
3. OCc1cc(-c2ccccc2)ccc1N1CC[C@H](Oc2nc(C(F)(F)F)cs2)C1

["> 1000 nM", "34.7 nM", "> 3200 nM"]

I would be grateful if you could provide IC50 for each of the following entries.
1. O=[N+]([O-])c1ccccc1N1CC[C@H](Oc2ccc3cc(Cl)ccc3n2)C1
2. NC(=O)c1cc(-c2ccccn2)ccc1N1CC[C@@H](Oc2ccccn2)C1
3. NC(=O)c1ccccc1-c1ccc(N2CC[C@H](Oc3ccc(C(F)(F)F)cn3)C2)c(CO)c1
4. OCCc1cc(Oc2ccccc2F)ccc1N1CC[C@H](Oc2ccccn2)C1
5. Cc1cccnc1O[C@H]1CCN(c2ccc(-c3ccccc3C#N)nc2CO)C1
6. Cc1ccccc1-c1ccc(N2CC[C@H](Oc3ccc(C(F)(F)F)cn3)C2)c(CCCO)c1
7. NC(=O)c1cc(-c2ccncc2)ccc1N1CC[C@@H](Oc2ccccn2)C1

["> 3200 nM", "> 3200 nM", "> 3200 nM", "~243 nM", "~2750 nM", "2550 nM", "> 3200 nM"]

I would be grateful if you could provide IC50 for each of the following entries.
1. O=C(c1ccc(F)cc1)c1ccc(N2CC[C@H](Oc3ncccc3Cl)C2)c(CCO)c1
2. COCc1ccc(C(O)c2ccc(N3CC[C@H](Oc4ncccc4Cl)C3)c(CO)c2)cc1 (stereo partly drawn)
3. COc1ccccc1Oc1ccc(N2CC[C@H](Oc3ccc(C)cn3)C2)c(CO)n1

["502 nM", "> 3200 nM", "~6000 nM"]

----------
# assayTarget: hTRPV3 (Homo sapiens (Human), UniProt Q8NET8)
# assayNotes: Whole-cell patch clamp, hTRPV3 Phase 1 / Phase 2 currents
# Format: cell-based
# testContext: Phase 1 current; read-out: hTRPV3 (nM) (Phase 1)
recordedEndpoint: IC50

Some molecules with recorded IC50:
[
  {
    "molecule": "Cc1ccccc1Oc1ccc(N2CC[C@H](Oc3ccc(C(F)(F)F)cn3)C2)c(CO)n1 [Compound 1-226]",
    "IC50": "~158 nM"
  },
  {
    "molecule": "O=C(c1ccc(Cl)cc1)c1ccc(N2CC[C@H](Oc3ncccc3Cl)C2)c(CCO)c1 [Compound 1-291]",
    "IC50": "~188 nM"
  }
]

I'd like to know its IC50. The molecule in question is O=C(Nc1ccccc1)c1ccc(N2CC[C@H](Oc3ncccc3Cl)C2)c(CCO)c1 [Compound 1-320]
~4660 nM

----------
# assayNotes: Aqueous solubility assay in Normal Ringer Solution
# testContext: Normal Ringer Solution, saline or isotonic, kinetic from dmso stock
Give solubility at 40 min for every item shown.

Some compounds with recorded solubility at 40 min:
[
  {
    "compound": "O=C(c1ccc(Cl)cn1)N1CCC(c2ccc(-c3ccccc3C3CC3)cc2CO)C1 (centres unmarked)",
    "solubility at 40 min": "~5.1 µM"
  },
  {
    "compound": "CCc1cc(C)ccc1-c1ccc(C2CCN(C(=O)c3ccc(F)cn3)C2)c(CO)c1 (centres unmarked)",
    "solubility at 40 min": "> 12.1 µM"
  },
  {
    "compound": "O=C(c1ccc(C(F)(F)F)cn1)N1CCC(c2ccc(-c3ccccc3C3CC3)cc2CO)C1 (centres unmarked)",
    "solubility at 40 min": "~5.2 µM"
  },
  {
    "compound": "CCc1c(C)cccc1-c1ccc(C2CCN(C(=O)c3ccc(Cl)cn3)C2)c(CO)c1 (centres unmarked)",
    "solubility at 40 min": "~3.6 µM"
  }
]

Here is another compound to look at.
I'd like to know its solubility at 40 min. The compound in question is Cc1ccccc1Oc1ccc(N2CC[C@H](Nc3ncccc3Cl)C2)c(CO)c1
~0.35 µM

----------
Give pIC50 for every item shown.
# assayTarget: hTRPV3 (Homo sapiens (Human))
# assayNotes: Whole-cell patch clamp, hTRPV3 Phase 1 / Phase 2 currents
# Assay type: cell-based
# testContext: Phase 2 current, inward, whole-cell patch clamp; read-out: hTRPV3 Patch P2 Inwd
pIC50: −log10 of the molar value. Where a name gives a salt, the structure may show the parent alone.

Some molecules with recorded pIC50:
[
  {
    "molecule": "NCc1ccccc1N1CC[C@H](Oc2ccc(C(F)(F)F)cn2)C1 [Compound 1-13, HCl salt]",
    "assayTarget": "hTRPV3 (Homo sapiens (Human))",
    "recordedEndpoint": "pIC50",
    "testValue": "< 6.00"
  },
  {
    "molecule": "N#Cc1cc(-c2ccccc2)ccc1N1CC[C@H](Oc2ccc(C(F)(F)F)cn2)C1",
    "assayTarget": "hTRPV3 (Homo sapiens (Human))",
    "recordedEndpoint": "pIC50",
    "testValue": "6.00 to 7.00"
  },
  {
    "molecule": "OCc1cc(Oc2ccc(Cl)cc2)ccc1N1C[C@@H](O)[C@H](Oc2ccc(C(F)(F)F)cn2)C1",
    "assayTarget": "hTRPV3 (Homo sapiens (Human))",
    "recordedEndpoint": "pIC50",
    "testValue": "< 6.00"
  },
  {
    "molecule": "CCc1ccccc1-c1ccc(N2CC[C@H](Oc3ccc(C(F)(F)F)cn3)C2)c(CO)c1",
    "assayTarget": "hTRPV3 (Homo sapiens (Human))",
    "recordedEndpoint": "pIC50",
    "testValue": "> 8.00"
  }
]

I would be grateful if you could provide pIC50 for each of the following entries.
1. NCc1cc(-c2ccccc2Cl)ccc1N1CC[C@H](Oc2ccc(C(F)(F)F)cn2)C1
2. O=[N+]([O-])c1ccccc1N1CC[C@H](Oc2ccc3cc(Cl)ccc3n2)C1
3. N#Cc1nc(-c2ccccc2)ccc1N1CC[C@@H](Oc2ccc(C(F)(F)F)cn2)C1
4. OCc1cc(-c2ccccc2)ccc1N1CC[C@H](Oc2ccc(C(F)(F)F)cn2)C1
5. NC(=O)c1cc(-c2ccc(F)cc2)ccc1N1CC[C@H](Oc2ccc(C(F)(F)F)cn2)C1

< 6.00
< 6.00
< 6.00
7.00 to 8.00
6.00 to 7.00

I would be grateful if you could provide pIC50 for each of the following entries.
1. Cc1ccccc1-c1ccc(N2CC[C@H](Oc3ncccc3C)C2)c(CO)n1
2. Cc1cccnc1O[C@H]1CCN(c2ccc(-c3ccccc3)cc2C(C)O)C1 (some centres unmarked)
3. CC(O)c1cc(F)ccc1Oc1ccc(N2CC[C@H](Oc3ccccn3)C2)c(CO)c1 (some centres unmarked)
4. CCOC(=O)COc1cc(-c2ccccc2)ccc1N1CC[C@H](Oc2ccc(C(F)(F)F)cn2)C1
5. OCc1cc(C(O)c2ccccc2Cl)ccc1N1CC[C@H](Oc2ncccc2F)C1 (some centres unmarked)
6. N#Cc1ccccc1N1CCC(Oc2ccc(C(F)(F)F)cn2)C1 (centres unmarked)
7. OCCc1cc(C(O)c2ccc(F)cc2)ccc1N1CC[C@H](Oc2ncccc2Cl)C1 (some centres unmarked)

1. 6.00 to 7.00
2. 6.00 to 7.00
3. 6.00 to 7.00
4. < 6.00
5. 7.00 to 8.00
6. < 6.00
7. < 6.00

I'd like to know its pIC50. The molecule in question is O=C(O)c1ccccc1N1CC[C@@H](Oc2ccc(C(F)(F)F)cn2)C1
< 6.00
